Origin of measurements: patent US20050130989A1

Target: tubulin (Sus scrofa, UniProt P02550+P02554)
Construct: Tubulin is purified from pig brain according to published methods
Sequence (P02550 whole entry): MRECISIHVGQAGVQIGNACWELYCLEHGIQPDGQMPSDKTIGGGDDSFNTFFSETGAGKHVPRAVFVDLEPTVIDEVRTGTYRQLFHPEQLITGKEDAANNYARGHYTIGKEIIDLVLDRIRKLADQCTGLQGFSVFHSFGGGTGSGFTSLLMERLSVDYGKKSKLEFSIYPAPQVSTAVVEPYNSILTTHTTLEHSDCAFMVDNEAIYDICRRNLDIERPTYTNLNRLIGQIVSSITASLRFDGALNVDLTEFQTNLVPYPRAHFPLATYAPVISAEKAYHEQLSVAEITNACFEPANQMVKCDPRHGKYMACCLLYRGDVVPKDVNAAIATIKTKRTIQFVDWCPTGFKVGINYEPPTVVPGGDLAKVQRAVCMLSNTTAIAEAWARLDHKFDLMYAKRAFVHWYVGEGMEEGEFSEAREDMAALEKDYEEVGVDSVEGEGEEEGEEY
Sequence (P02554 whole entry): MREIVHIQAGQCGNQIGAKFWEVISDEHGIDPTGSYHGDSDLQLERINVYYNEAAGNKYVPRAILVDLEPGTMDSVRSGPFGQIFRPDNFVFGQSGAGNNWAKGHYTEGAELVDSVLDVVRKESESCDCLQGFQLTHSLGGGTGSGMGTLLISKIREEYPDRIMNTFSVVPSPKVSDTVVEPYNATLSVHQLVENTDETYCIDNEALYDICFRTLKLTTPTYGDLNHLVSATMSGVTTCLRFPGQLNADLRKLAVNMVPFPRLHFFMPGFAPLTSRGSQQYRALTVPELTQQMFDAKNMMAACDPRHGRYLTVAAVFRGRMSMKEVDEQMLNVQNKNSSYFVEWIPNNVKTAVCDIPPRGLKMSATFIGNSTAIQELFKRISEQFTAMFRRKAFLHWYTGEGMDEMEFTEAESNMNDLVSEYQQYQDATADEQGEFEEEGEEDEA
Assay: Evaluation of the inhibition of tubulin polymerization (turbidimetry)
Details: tubulin 10 μm (1 mg/ml), 37° C., turbidity at 350 nm; concentration that inhibits the rate of polymerization by 50%; read-out: Inhibition of tubulin polymerization IC 50 (μm)
ASSAY_READOUT: IC50 (µM)
Your answer should be a plain number; it is taken to be in µM.

Some solved entries appear below for comparison.
Give recorded IC50 with tubulin (Sus scrofa, UniProt P02550+P02554) for the following compound: Cc1cc(C(=O)N2CCN(c3ccccc3[N+](=O)[O-])CC2)n(-c2ccccc2)n1
13.5

Give recorded IC50 with tubulin (Sus scrofa, UniProt P02550+P02554) for the following compound: O=C(c1cc(CO)nn1-c1ccccc1)N1CCN(c2cccc(Cl)c2)CC1
1.37

Give recorded IC50 with tubulin (Sus scrofa, UniProt P02550+P02554) for the following compound: COc1ccc(Cl)cc1N1CCN(C(=O)c2cc(C)nn2-c2cccc(Cl)c2)CC1
1.8

Here's the next entry for you.
Give recorded IC50 with tubulin (Sus scrofa, UniProt P02550+P02554) for the following compound: Cc1cc(C(=O)N2CCN(c3cccc(C(F)(F)F)c3)CC2)n(-c2ccccc2)n1
6.5

###

Target: tubulin (Sus scrofa, UniProt P02550+P02554)
Construct: Tubulin is purified from pig brain according to published methods
Test: Evaluation of the inhibition of tubulin polymerization (turbidimetry)
Settings: tubulin 10 μm (1 mg/ml), 37° C., turbidity at 350 nm; concentration that inhibits the rate of polymerization by 50%; read-out: Inhibition of tubulin polymerization IC 50 (μm)
Counter-ions that a name gives are not always drawn.
Doc: threshold 4000 nM (exclusive). Items with IC50 beneath it return Yes; others return No.

Would you please look over these solved cases?
Is the reported IC50 for Cc1cc(C(=O)N2CCN(c3cccc(Cl)c3)CC2)n(-c2ccc(F)cc2)n1 [3/38] strictly below 4000 nM?
No

Is the reported IC50 for CSc1ccccc1N1CCN(C(=O)c2cc(C)nn2-c2cccc(F)c2)CC1 [3/97] strictly below 4000 nM?
Yes

Is the reported IC50 for Cc1cc(C(=O)N2CCN(c3ccc4c(c3)OCCO4)CC2)n(-c2ccccc2)n1 [3/14] strictly below 4000 nM?
No

Is the reported IC50 for NC(=O)c1cccc(N2CCN(C(=O)c3cccn3-c3ccccc3)CC2)c1 [Example E57] strictly below 4000 nM?
Yes

Is the reported IC50 for Cc1cc(C(=O)N2CCN(c3ccccc3)CC2)n(-c2ccccc2)n1 [3/6] strictly below 4000 nM?
No

Is the reported IC50 for Cc1cc(C(=O)N2CCN(c3cccc(Cl)c3)CC2)n(-c2cccc(Cl)c2)n1 [3/34] strictly below 4000 nM?
Yes

Is the reported IC50 for Cc1cc(C(=O)N2CCN(c3cccc(C(C)O)c3)CC2)n(-c2ccccc2)n1 (centres unmarked) [Example E39, hydrochloride] strictly below 4000 nM?
Yes

Is the reported IC50 for COc1ccc(-n2nc(C)cc2C(=O)N2CCN(c3cccc(OC)c3)CC2)cc1 [3/105] strictly below 4000 nM?
No

Further cases:
Is the reported IC50 for Cc1cc(C(=O)N2CCN(c3ccc(Cl)cc3)CC2)n(-c2cccc(Cl)c2)n1 [3/69] strictly below 4000 nM?
No

Is the reported IC50 for COc1cccc(-n2nc(C)cc2C(=O)N2CCN(c3cc(Cl)ccc3OC)CC2)c1 [3/5] strictly below 4000 nM?
Yes

Is the reported IC50 for COc1ccc(Cl)cc1N1CCN(C(=O)c2cc(C)nn2-c2ccccc2F)CC1 [3/88] strictly below 4000 nM?
No

Is the reported IC50 for COc1cc(OC)cc(N2CCN(C(=O)c3cc(C)nn3-c3ccccc3)CC2)c1 [Example E20] strictly below 4000 nM?
Yes

Is the reported IC50 for COc1cccc(N2CCN(C(=O)c3cc(C)nn3-c3cccc(Cl)c3)CC2)c1 [3/25] strictly below 4000 nM?
Yes

Is the reported IC50 for Cc1cc(C(=O)N2CCN(c3cccc(Cl)c3)CC2)n(-c2ccccc2)n1 [Example 1] strictly below 4000 nM?
Yes

Is the reported IC50 for COc1cc(OC)cc(N2CCN(C(=O)c3cc(C=O)nn3-c3ccccc3)CC2)c1 [Example E100] strictly below 4000 nM?
Yes

Is the reported IC50 for Cc1cc(C(=O)N2CCN(c3cccc(O)c3)CC2)n(-c2ccccc2)n1 [Example E13] strictly below 4000 nM?
Yes

Is the reported IC50 for Cc1cc(C(=O)N2CCN(c3cncc(Cl)c3)CC2)n(-c2ccccc2)n1 [Example E33] strictly below 4000 nM?
Yes

Is the reported IC50 for Cc1cc(C(=O)N2CCN(c3cccc(C(F)(F)F)c3)CC2)n(-c2ccc(Cl)cc2)n1 [3/72] strictly below 4000 nM?
No

Is the reported IC50 for Cc1cc(C(=O)N2CCN(c3ccc(C)c(C)c3)CC2)n(-c2ccccc2)n1 [Example 2] strictly below 4000 nM?
Yes
